Kindly supply the reported z-score values for the records listed here.
Experiment: mitochondrial membrane potential change in A549 cells, profiling panel, cell-based, JC-1 fluorescence, basal, 24 h, 100 nL (AID 1138);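 further: A549 lung adenocarcinoma cells under basal conditions with no added stimulus; test concentration not given here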
Details: higher = more signal
Reply: number alone, nothing else.

Request: For the compound COCCOC(=O)N1C(=O)[C@@]2(c3cc(C#CC4(O)CCCCCC4)ccc31)[C@H](c1ccccc1OCCO)N1[C@H](c3ccccc3)[C@H](c3ccccc3)OC(=O)[C@H]1[C@@H]2C(=O)N1CCN(c2ncccn2)CC1 , what z-score is on record?
Result: -1.13

Request: // query: O=C1C[C@]2(c3ccc([N+](=O)[O-])cc3)C(=O)N(CC(F)(F)F)c3cc(CO)ccc3[C@H]2N1C1CCCCC1
Result: 0.673

Request: // query: CCCC[C@@H]1C[C@H]1[C@@H](NC(=O)C(C)(C)C)c1ccc(C(F)(F)F)cc1
Result: -1.08

Request: // query: CN1C(=O)C2C=CC(C(O)C3CC=CCC3)N(N(c3ccccc3)c3ccccc3)C2C1=O (configuration not stated)
Result: 0.43

Request: // query: CN1C=C(C(=O)OCCS(C)(=O)=O)C(C(=O)OCCS(C)(=O)=O)=CC(c2ccc(CO)cc2)=CC1C1CC1 (configuration not stated)
Result: 1.48

Request: // query: CC(C)c1ccc(NN2C(C(O)c3ccc(B(O)O)cc3)C=CC3C(=O)N(c4ccccc4)C(=O)C32)cc1 (configuration not stated)
Result: -0.641

Request: // query: C=CC[C@]1(C(=O)NCc2ccccc2)N=C(c2ccc(OCCCO)cc2)O[C@H]1c1ccccc1N=[N+]=[N-]
Result: 0.34

----------
Test: splicing luciferase reporter signal modulators, primary screen, spliceosome inhibition project, cell-based, HEK293, splice +/- reporter (AID 1101);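 further: HEK293 cells carrying a splicing-competent luciferase reporter gene; test concentration not given here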
Details: luminescence, 24 h, higher = more signal, called active from +8 up or from −8 down
Respond with y for z-score values of -0.5 and above, n for values below.

Request: # bool: z-score of C[N+](C)(C)CCCCNC(=O)[C@H]1C[C@H]2C(=O)N3CCC[C@H]3C(=O)N2[C@H]1c1cccc(OCCO)c1 >= -0.5
Result: y

Request: // query: Cc1ccc(S[C@]2(C(=O)NCCCN(C)C)CC(=O)N(Cc3cc(C(F)(F)F)cc(C(F)(F)F)c3)[C@@H]2c2ccc(CO)cc2I)cc1
Result: y

Request: // query: COC(=O)[C@@]1(Cc2ccccc2)N=C(c2ccc(OCCCO)cc2)O[C@H]1c1ccccc1
Result: y

Request: // query: C=CCC(OC(C)=O)[C@@H]1[C@@H](N(Cc2ccc(-c3ccccc3)cc2)C(=O)c2cccc3ccccc23)c2cc(OCCCO)ccc2N1C(=O)c1ccc(-c2ccccc2)cc1 (stereo not given in full)
Result: n

Request: // query: CC1CC/C=C\[C@H]2OC34C=CCN(C(C)(C)C)C(=O)[C@H]3N(CCO)C(=O)[C@@H]4C2C(=O)O1 (stereo not given in full)
Result: y

Request: // query: CC(C)c1ccc(NN2C(C(O)c3ccc(B(O)O)cc3)C=CC3C(=O)N(c4ccccc4)C(=O)C32)cc1 (stereo not given)
Result: y

Request: // query: COc1cc(NN2C(C(O)c3ccco3)C=CC3C(=O)N(c4ccccc4)C(=O)C32)cc(OC)c1OC (stereo not given)
Result: y

Request: // query: COCC(=C=CC[C@@H](O)c1cccc(OCCO)c1)C[C@@H](O)c1ccccn1
Result: y

Request: // query: COC(=O)[C@@]1(Cc2ccc(F)cc2)[C@H]2c3cc(C(=O)N(C)C)n(Cc4ccc(Cl)c(C(F)(F)F)c4)c3C[C@H]2CN1C(=O)c1ccccc1
Result: n

Request: // query: C=C(C)[C@@H]1CC=C(C(O)C2C=CC3C(=O)N(C)C(=O)C3N2Nc2ccccc2)CC1 (stereo not given in full)
Result: y

Request: // query: C=CCC(OC(C)=O)[C@@H]1[C@@H](N(Cc2ccc(-c3ccccc3)cc2)C(=O)Cc2ccc(OC)cc2)c2cc(OCCCO)ccc2N1C(=O)Cc1ccc2ccccc2c1 (stereo not given in full)
Result: y

Request: // query: [N-]=[N+]=Nc1ccccc1[C@@H]1OC(c2ccc(OCCCO)cc2)=N[C@]1(Cc1ccccc1)C(=O)N1CCOCC1
Result: n

Request: // query: COCCCNC(=O)[C@@H]1c2ccccc2C(=O)N(Cc2ccccc2Cl)[C@H]1c1ccc(CO)cc1
Result: y

Request: // query: COc1ccc(/C=C/C=O)cc1
Result: n

Request: // query: COC(=O)[C@@]1(Cc2ccccc2)[C@H]2c3cc(C(=O)N(C)C)n(Cc4ccsc4Br)c3C[C@H]2CN1C(=O)c1ccccc1
Result: n

Request: // query: COC(=O)[C@@]1(Cc2ccc(OC)cc2)[C@H]2c3cc(C(=O)N(C)C)n(Cc4ccc(S(C)(=O)=O)cc4)c3C[C@H]2CN1C(=O)c1ccccc1
Result: y

Request: // query: CCCC[C@@H]1C[C@H]1[C@@H](NC(=O)c1ccco1)c1ccc(-c2ccccc2)cc1
Result: n

Request: // query: CN1C(=O)C2C=CC(C(O)c3ccco3)N(Nc3ccccc3)C2C1=O (stereo not given)
Result: y

Request: // query: COc1cc2c(cc1OC)CN(C(=O)[C@@H]1[C@H]3C(=O)O[C@H](c4ccccc4)[C@H](c4ccccc4)N3[C@H](c3ccc(O)cc3)[C@@]13C(=O)Nc1ccccc13)CC2
Result: n

Request: // query: COC(=O)[C@H](Cc1ccccc1)N1CC2=C[C@@H](C3CC3)n3c(=O)n(C)c(=O)n3[C@H]2[C@@H]1[C@@H](O)Cc1ccccc1
Result: n

Request: // query: C=CCNC(=O)[C@H]1[C@@H]2C(=O)O[C@@H](c3ccccc3)[C@@H](c3ccccc3)N2[C@@H](c2ccccc2OCCO)[C@]12C(=O)Nc1ccc(C#CCCO)cc12
Result: y

Request: // query: CN(C)C(=O)[C@@]1(CCS(=O)(=O)c2ccccc2)COC(c2ccc(OCCCO)cc2)=N1
Result: n

Request: // query: COC(=O)[C@@]1(Cc2ccccc2)[C@H]2c3cc(C(=O)N4CCCC4)n(Cc4ccc(S(C)(=O)=O)cc4)c3C[C@H]2CN1C(=O)c1ccccc1
Result: n

Request: // query: CCN(CC)c1ccc(N2CC=CC34O[C@@H]5C=CCCOC(=O)C5[C@H]3C(=O)N(CCCCCCO)[C@@H]4C2=O)cc1 (stereo not given in full)
Result: n

Request: // query: COC(=O)[C@H](Cc1ccccc1)N[C@@H](/C=C/C1CC1)[C@H](O)Cc1ccccc1
Result: y

Request: // query: C=C(CCCC)/C(=C/C[C@@H](OC(=O)c1ccncc1)c1ccc(OCCO)cc1)c1cc(C(=O)OC)ccc1OC
Result: y

Request: // query: COc1cc2c(cc1OC)CN(C(=O)[C@H]1[C@@H]3C(=O)O[C@@H](c4ccccc4)[C@@H](c4ccccc4)N3[C@@H](c3ccc(O)cc3)[C@]13C(=O)Nc1ccccc13)CC2
Result: y

Request: // query: COC(=O)[C@@]1(Cc2ccc(OC)cc2)[C@@H]2C(=CC(=O)[C@H]2CC(=O)C(=O)N2CCCC2)CN1C(=O)c1ccccc1
Result: n

Request: // query: O=C1NC(=O)C2C1C=CC(C(O)c1cccs1)N2Nc1ccc(Cl)cc1Cl (stereo not given)
Result: y
